target: T1, full-length untagged human GPNMB expressed on cells (human, UniProt Q14956 23-572)
T1 construct: also used here for GPNMB on human monocyte-derived macrophages in the functional assays; also called huGPNMB; Freestyle293-huGPNMB+
T1 sequence: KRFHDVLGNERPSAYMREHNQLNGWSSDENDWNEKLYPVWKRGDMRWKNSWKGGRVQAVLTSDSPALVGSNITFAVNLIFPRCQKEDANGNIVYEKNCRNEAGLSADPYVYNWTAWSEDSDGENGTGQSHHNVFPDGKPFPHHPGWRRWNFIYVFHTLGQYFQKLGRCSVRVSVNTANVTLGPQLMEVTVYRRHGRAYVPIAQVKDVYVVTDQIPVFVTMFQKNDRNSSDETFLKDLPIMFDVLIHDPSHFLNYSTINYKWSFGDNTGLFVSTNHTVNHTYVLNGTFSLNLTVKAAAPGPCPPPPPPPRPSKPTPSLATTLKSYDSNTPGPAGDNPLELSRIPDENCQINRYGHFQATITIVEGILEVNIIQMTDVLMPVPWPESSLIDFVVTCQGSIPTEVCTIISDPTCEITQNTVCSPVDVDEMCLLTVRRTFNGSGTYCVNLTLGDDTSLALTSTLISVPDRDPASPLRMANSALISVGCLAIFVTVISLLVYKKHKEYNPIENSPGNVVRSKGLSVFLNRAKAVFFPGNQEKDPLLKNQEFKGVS
experiment-notes: FACS titration, FS293-huGPNMB+ cells
Below, each of the binders is paired with its reported EC50 value.
endpoint-label: EC50 (nM)

[
  {
    "binder": "anti-GPNMB antibody GPN-09 (antibody, human IgG1, V domains shown, chimeric) VH: QVQLQQSGAELVKPGASVKLSCKASGYTFTSYYIYWVKQRPGQGLEWIGEINPSNGGTYFNEKFKNKATLTVDKSSSTAYMQLSSLTSEDSAVYYCTRGGNYYAYWGQGTLVTVSA VL: DIQMTQSPSSLSASLGERVSLTCRASQEISGHLGWLQQKPDGTIKRLIYAALTLDSGVPKRFSGSRSGSDYSLTISSLESEDFADYYCLQYASYPYTFGGGTKLEIK",
    "observed-result": 1.31
  },
  {
    "binder": "anti-GPNMB antibody GPN-38 (antibody, human IgG1, V domains shown, chimeric) VH: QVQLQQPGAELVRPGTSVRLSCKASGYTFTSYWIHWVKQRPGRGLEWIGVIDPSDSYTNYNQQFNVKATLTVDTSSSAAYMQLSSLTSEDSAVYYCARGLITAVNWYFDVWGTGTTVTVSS VL: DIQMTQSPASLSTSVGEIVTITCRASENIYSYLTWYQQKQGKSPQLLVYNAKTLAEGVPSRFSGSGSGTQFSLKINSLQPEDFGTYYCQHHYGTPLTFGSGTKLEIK",
    "observed-result": 0.99
  },
  {
    "binder": "anti-GPNMB antibody GPN-31 (antibody, human IgG1, V domains shown, chimeric) VH: EVQLQQSGPELVKPGASVKISCKASGYSFTGYYMNWVKQSPEKNLEWIGEINPNTGGTTYNQKFKAKATLTVDKSSTTAYMQLKSLTSEDSAVYYCTRPASWFDYWGQGTLVTVSA VL: DIQMTQSPSSLSASLGERVSLTCRASQEISGHLSWLQQKPDGTIKRLIYAASTLDSGVPKRFSGRRSGSDYSLTISSLESEDFADYYCLQYASYPYTFGGGTKLAIK",
    "observed-result": 0.76
  },
  {
    "binder": "anti-GPNMB antibody GPN-25 (antibody, human IgG1, V domains shown, chimeric) VH: EVQLQQSGPELVKPGASVKISCKASGYSFTGYYMNWVKQSPEKSLEWIGEINPGSGITTYNQKFKAKATLTVDKSSSTAYLQLKSLTSEDSAVYYCARPASWFAYWGQGTLVTVSA VL: DIQMTQSPSSLSASLGERVSFICRASQEISGHLSWLQQKPDGTIKRLIYAASTLDSGVPKRFSGSRSGSDYSLTISSLESEDFADYYCLQYASYPYTFGGGTKLEIK",
    "observed-result": 0.5
  },
  {
    "binder": "anti-GPNMB antibody GPN-65 (antibody, human IgG1, V domains shown, chimeric) VH: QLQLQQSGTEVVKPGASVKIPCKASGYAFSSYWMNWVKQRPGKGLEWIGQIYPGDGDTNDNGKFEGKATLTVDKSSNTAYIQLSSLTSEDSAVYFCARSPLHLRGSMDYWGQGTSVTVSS VL: SIVMTQTPKFLLVSAGDRVTITCKASQSVSNDVAWFQQKPGQSPELLIYSASNRYTGVPDRFTGSGYGTDFTFTISTVQAEDLAVYFCQQNYYSPFTFGGGTRLEIK",
    "observed-result": 2.6
  }
]
